Hello, the source for this data is patent US7439253B2, in case you need it.

# target desc: β-lactamase P99 (Enterobacter cloacae, UniProt P05364)
# Construct: The β-lactamases are isolated from bacterial strains resistant to penicillins and to cephalosporins; endogenous in cells; host or cells: E. cloacae 293HT6 (soluble fraction of French-press lysate, 100 000 G supernatant)
# Sequence (P05364 21-381): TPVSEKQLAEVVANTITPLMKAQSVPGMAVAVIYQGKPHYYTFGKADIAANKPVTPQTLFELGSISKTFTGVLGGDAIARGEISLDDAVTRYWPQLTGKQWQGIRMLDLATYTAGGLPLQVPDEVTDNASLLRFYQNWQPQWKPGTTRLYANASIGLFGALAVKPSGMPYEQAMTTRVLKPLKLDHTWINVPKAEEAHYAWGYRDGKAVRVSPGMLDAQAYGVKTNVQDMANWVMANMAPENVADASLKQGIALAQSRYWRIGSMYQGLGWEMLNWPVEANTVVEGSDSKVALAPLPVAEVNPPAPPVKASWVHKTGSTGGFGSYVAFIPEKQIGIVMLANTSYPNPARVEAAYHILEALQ
# assay protocol: biochemical
# Format: biochemical
# details: 100 μM Nitrocefin, 50 mM sodium phosphate buffer pH 7.0, 37° C.
Criterion: IC50 strictly under 6 nM. Met: true. Not met: false.

Please review the entries below; each comes with its answer.
COC(=O)C1c2nn(C(N)=O)cc2C2CN1C(=O)N2OS(=O)(=O)O (stereo not drawn); false
Cc1ccccc1-c1cc2c(s1)[C@@H](C(N)=O)N1C[C@H]2N(OS(=O)(=O)O)C1=O (relative stereo); false
NC(=O)C1c2nn(C(=O)Nc3ccccc3)cc2C2CN1C(=O)N2OS(=O)(=O)O (stereo not drawn); false
NC(=O)[C@@H]1c2c(cnn2-c2ccccc2)[C@H]2CN1C(=O)N2OS(=O)(=O)O (relative stereo); true
COC(=O)[C@@H]1c2nn(Cc3ccccc3)cc2[C@H]2CN1C(=O)N2OS(=O)(=O)O (relative stereo); true
COC(=O)[C@@H]1c2c(cnn2C(N)=O)[C@@H]2CN1C(=O)N2OS(=O)(=O)O (relative stereo); false

Kindly consider the entry below.
Lab log: compare recorded IC50 with 6 nM; is it strictly lower for O=C1N2Cc3c(cnn3-c3ccccc3)C(C2)N1OS(=O)(=O)O (stereo not drawn) ? false
